- Tested on: gastric acid secretion
- testMethodNotes: Inhibiting effect of gastric acid secretion, perfused stomach, pentagastrin-stimulated (Ghosh & Schild)
- Assay type: in vivo, male SD rat
- protocolConditions: urethane-anesthetized SD rat, pentagastrin 0.05 μg/kg/min, injected through femoral vein; ratio of area index to that of PGE2
The following compounds are listed with their measured Inhibiting effect of gastric acid secretion, Relative effect (PGE2 = 1) values.
observationType: Inhibiting effect of gastric acid secretion, Relative effect (PGE2 = 1)

compound | readoutNumber
COCC(C)(C)[C@H](O)/C=C/[C@@H]1[C@H]2c3cccc(OCC(=O)O)c3O[C@H]2C[C@H]1O (relative stereo) | 16
O=C(O)COc1cccc2c1O[C@H]1C[C@@H](O)[C@H](/C=C/[C@@H](O)c3cccc(F)c3)[C@@H]21 (relative stereo) | 12
O=C(O)COc1cccc2c1O[C@H]1C[C@@H](O)[C@H](/C=C/[C@@H](O)c3ccccc3)[C@@H]21 (relative stereo) | 7.8

----------
- Test system: gastric acid secretion
- testMethodNotes: Inhibiting effect of gastric acid secretion, perfused stomach, pentagastrin-stimulated (Ghosh & Schild)
- Type: in vivo, male SD rat
- protocolConditions: urethane-anesthetized SD rat, pentagastrin 0.05 μg/kg/min, injected through femoral vein; ratio of area index to that of PGE2
The following molecules are listed with their measured Inhibiting effect of gastric acid secretion, Relative effect (PGE2 = 1) values.
observationType: Inhibiting effect of gastric acid secretion, Relative effect (PGE2 = 1)

molecule | testedOn | readoutNumber
CCCCC[C@H](O)/C=C/[C@@H]1[C@H]2c3cccc(OCC(=O)O)c3O[C@H]2C[C@H]1O (relative stereo) | gastric acid secretion | 39
O=C(O)COc1cccc2c1O[C@H]1C[C@@H](O)[C@H](/C=C/[C@@H](O)c3cccc(C(F)(F)F)c3)[C@@H]21 (relative stereo) | gastric acid secretion | 6.9
CCCCCC(C)(O)/C=C/[C@@H]1[C@H]2c3cccc(OCC(=O)O)c3O[C@H]2C[C@H]1O (relative stereo) | gastric acid secretion | 13
O=C(O)COc1cccc2c1O[C@H]1C[C@@H](O)[C@H](/C=C/[C@@H](O)COc3ccccc3)[C@@H]21 (relative stereo) | gastric acid secretion | 53
CC(C)[C@H](O)/C=C/[C@@H]1[C@H]2c3cccc(OCC(=O)O)c3O[C@H]2C[C@H]1O (relative stereo) | gastric acid secretion | 12

----------
- Test system: gastric acid secretion
- testMethodNotes: Inhibiting effect of gastric acid secretion, perfused stomach, pentagastrin-stimulated (Ghosh & Schild)
- Type: in vivo, male SD rat
- protocolConditions: urethane-anesthetized SD rat, pentagastrin 0.05 μg/kg/min, injected through femoral vein; ratio of area index to that of PGE2
The following molecules are listed with their measured Inhibiting effect of gastric acid secretion, Relative effect (PGE2 = 1) values.
observationType: Inhibiting effect of gastric acid secretion, Relative effect (PGE2 = 1)

molecule | testedOn | readoutNumber
CCCCC(C)(C)[C@H](O)/C=C/[C@@H]1[C@H]2c3cccc(OCC(=O)O)c3O[C@H]2C[C@H]1O (relative stereo) [Compound 180] | gastric acid secretion | 72
CCCCC[C@H](O)/C=C/[C@H]1[C@H](O)CC(=O)[C@@H]1C/C=C\CCCC(=O)O [PGE2, reference compound] | gastric acid secretion | 1
CC(C)(CC1CCCCC1)[C@H](O)/C=C/[C@@H]1[C@H]2c3cccc(OCC(=O)O)c3O[C@H]2C[C@H]1O (relative stereo) [Compound 252] | gastric acid secretion | 13
